The reported measurements were obtained from ChEMBL document CHEMBL6153041.

- System name: SWI/SNF-related matrix-associated actin-dependent regulator of chromatin subfamily A member 2 (Homo sapiens, UniProt P51531)
- Sequence (P51531 whole entry): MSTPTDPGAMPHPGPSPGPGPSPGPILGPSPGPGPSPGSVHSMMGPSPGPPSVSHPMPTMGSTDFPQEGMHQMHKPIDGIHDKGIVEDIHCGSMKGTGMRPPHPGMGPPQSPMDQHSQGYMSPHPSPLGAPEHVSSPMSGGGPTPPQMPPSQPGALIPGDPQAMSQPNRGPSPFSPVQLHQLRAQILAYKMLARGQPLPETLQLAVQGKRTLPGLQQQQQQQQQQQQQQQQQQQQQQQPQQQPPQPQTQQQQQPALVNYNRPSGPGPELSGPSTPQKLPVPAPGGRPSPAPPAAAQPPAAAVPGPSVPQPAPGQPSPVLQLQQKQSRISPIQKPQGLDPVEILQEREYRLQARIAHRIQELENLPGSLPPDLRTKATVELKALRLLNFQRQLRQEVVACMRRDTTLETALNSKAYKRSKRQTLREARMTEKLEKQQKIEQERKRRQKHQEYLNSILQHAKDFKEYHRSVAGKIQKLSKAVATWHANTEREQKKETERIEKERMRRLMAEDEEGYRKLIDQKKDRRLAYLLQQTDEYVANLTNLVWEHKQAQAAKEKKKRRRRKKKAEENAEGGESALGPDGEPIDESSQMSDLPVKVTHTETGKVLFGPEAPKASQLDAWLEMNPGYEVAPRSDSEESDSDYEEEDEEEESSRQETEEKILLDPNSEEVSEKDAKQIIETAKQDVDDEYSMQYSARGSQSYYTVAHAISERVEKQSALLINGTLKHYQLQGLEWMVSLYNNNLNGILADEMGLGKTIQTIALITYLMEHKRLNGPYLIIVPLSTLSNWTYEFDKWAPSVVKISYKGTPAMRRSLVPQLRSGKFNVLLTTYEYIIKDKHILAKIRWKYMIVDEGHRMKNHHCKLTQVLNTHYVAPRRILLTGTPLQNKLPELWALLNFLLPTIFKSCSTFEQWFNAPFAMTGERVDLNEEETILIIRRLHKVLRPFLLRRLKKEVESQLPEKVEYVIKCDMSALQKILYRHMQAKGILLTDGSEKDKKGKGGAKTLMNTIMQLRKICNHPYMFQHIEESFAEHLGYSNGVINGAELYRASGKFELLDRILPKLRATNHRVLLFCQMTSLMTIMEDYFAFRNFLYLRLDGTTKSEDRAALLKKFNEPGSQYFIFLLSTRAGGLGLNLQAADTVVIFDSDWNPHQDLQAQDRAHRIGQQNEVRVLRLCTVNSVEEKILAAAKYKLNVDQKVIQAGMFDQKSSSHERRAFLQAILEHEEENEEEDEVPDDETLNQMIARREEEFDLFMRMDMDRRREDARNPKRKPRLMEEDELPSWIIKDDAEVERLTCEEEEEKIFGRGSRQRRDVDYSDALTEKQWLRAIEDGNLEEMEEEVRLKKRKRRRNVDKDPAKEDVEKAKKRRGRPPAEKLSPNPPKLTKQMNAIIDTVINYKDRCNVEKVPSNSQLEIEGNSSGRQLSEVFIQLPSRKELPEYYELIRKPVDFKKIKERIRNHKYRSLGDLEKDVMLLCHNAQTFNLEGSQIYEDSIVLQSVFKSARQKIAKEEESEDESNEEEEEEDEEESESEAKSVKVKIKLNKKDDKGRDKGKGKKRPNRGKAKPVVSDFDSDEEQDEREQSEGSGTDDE
- Assay details: Inhibition of recombinant human GST-tagged SMARCA2 bromodomain measured after 120 mins incubation by TR-FRET assay
Observed property: IC50 (nM)
// units = nM; emit number, no label

In the examples that follow, each entry is paired with its recorded IC50.
O=c1nc2n(c3cccc(Cl)c13)-c1ccc(C3CCNCC3)cc1C21CCNCC1	3450
O=c1nc2n(c3cccc(Br)c13)-c1cc(C3CCNCC3)ccc1C21CCCCC1	64
O=c1nc2n(c3cccc(Cl)c13)-c1ccc(C3CCNCC3)cc1C21CCCC1	56

Please look at the following compound next.
Complete the entry with IC50 for `O=c1nc2n(c3cccc(Cl)c13)-c1ccc(C3CCNCC3)cc1C21CCCCCC1` 153

---

- System name: von Hippel-Lindau disease tumor suppressor/SWI/SNF-related matrix-associated actin-dependent regulator of chromatin subfamily A member 2 (Homo sapiens, UniProt P51531+P40337)
- Sequence (P51531 whole entry): as above
- Sequence (P40337 whole entry): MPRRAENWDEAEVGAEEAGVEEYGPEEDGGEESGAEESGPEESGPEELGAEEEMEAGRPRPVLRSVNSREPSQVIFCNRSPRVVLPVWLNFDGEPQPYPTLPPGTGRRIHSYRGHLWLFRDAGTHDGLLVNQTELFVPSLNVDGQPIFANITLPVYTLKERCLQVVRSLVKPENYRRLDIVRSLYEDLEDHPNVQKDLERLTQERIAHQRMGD
- Assay details: PROTAC activity at VHL1/SMARCA2 in human genetically modified Hela cells assessed as degradation measured after 24 hrs incubation by Nano-Glo HiBiT Lytic Detection Assay
- Type: cell-based
Entries annotated with measured DC50
// units = nM; emit number, no label

In the examples that follow, each entry is paired with its recorded DC50.
Cc1ncsc1-c1ccc([C@H](C)NC(=O)[C@@H]2C[C@@H](O)CN2C(=O)[C@@H](NC(=O)CCCCCN2CCC(c3ccc4c(c3)C3(CCCCC3)c3nc(=O)c5c(Cl)cccc5n3-4)CC2)C(C)(C)C)cc1	29
Cc1ncsc1-c1ccc([C@H](C)NC(=O)[C@@H]2C[C@@H](O)CN2C(=O)[C@@H](NC(=O)CCCN2CCC(c3ccc4c(c3)C3(CCCCC3)c3nc(=O)c5c(Cl)cccc5n3-4)CC2)C(C)(C)C)cc1	61
Cc1ncsc1-c1ccc([C@H](C)NC(=O)[C@@H]2C[C@@H](O)CN2C(=O)[C@@H](NC(=O)CN2CCC(c3ccc4c(c3)C3(CCCCC3)c3nc(=O)c5c(Cl)cccc5n3-4)CC2)C(C)(C)C)cc1	5.3

Complete the entry with DC50 for `Cc1ncsc1-c1ccc([C@H](CCCCCN2CCC(c3ccc4c(c3)C3(CCCCC3)c3nc(=O)c5c(Cl)cccc5n3-4)CC2)NC(=O)[C@@H]2C[C@@H](O)CN2C(=O)[C@@H](NC(=O)C2(F)CC2)C(C)(C)C)cc1` 0.4

Complete the entry with DC50 for `Cc1ncsc1-c1ccc([C@H](C)NC(=O)[C@@H]2C[C@@H](O)CN2C(=O)[C@@H](NC(=O)[C@H]2CC[C@H](CN3CCC(c4ccc5c(c4)C4(CCCCC4)c4nc(=O)c6c(Br)cccc6n4-5)CC3)CC2)C(C)(C)C)cc1` 3

Complete the entry with DC50 for `Cc1ncsc1-c1ccc([C@H](CCCCCN2CCC(c3ccc4c(c3)C3(CCCCC3)c3nc(=O)c5c(Br)cccc5n3-4)CC2)NC(=O)[C@@H]2C[C@@H](O)CN2C(=O)[C@@H](NC(=O)C2(F)CC2)C(C)(C)C)cc1` 0.24

Complete the entry with DC50 for `Cc1ncsc1-c1ccc([C@H](CCCCCN2CCC(c3ccc4c(c3)-n3c(nc(=O)c5c(Cl)cccc53)C43CCCCC3)CC2)NC(=O)[C@@H]2C[C@@H](O)CN2C(=O)[C@@H](NC(=O)C2(F)CC2)C(C)(C)C)cc1` 7.5

Complete the entry with DC50 for `Cc1ncsc1-c1ccc([C@H](C)NC(=O)[C@@H]2C[C@@H](O)CN2C(=O)[C@@H](NC(=O)[C@H]2CC[C@H](CN3CC4(CCC(n5cc(-c6cc(-c7ccccc7O)nnc6N)cn5)CC4)C3)CC2)C(C)(C)C)cc1` 23

Complete the entry with DC50 for `Cc1ncsc1-c1ccc([C@H](C)NC(=O)[C@@H]2C[C@@H](O)CN2C(=O)[C@@H](NC(=O)[C@H]2CC[C@H](CN3CCC(c4ccc5c(c4)-n4c(nc(=O)c6c(Br)cccc64)C54CCCCC4)CC3)CC2)C(C)(C)C)cc1` 14

---

- System name: SWI/SNF-related matrix-associated actin-dependent regulator of chromatin subfamily A member 2 (Homo sapiens)
- Assay details: Inhibition of recombinant human GST-tagged SMARCA2 bromodomain measured after 120 mins incubation by TR-FRET assay
Entries annotated with measured IC50
// units = nM; emit number, no label

In the examples that follow, each entry is paired with its recorded IC50.
O=c1nc2n(c3cccc(Br)c13)-c1ccc(C3CCNCC3)cc1C21CCCCC1	30
O=c1nc2n(c3cccc(O)c13)-c1cc(C3CCNCC3)ccc1C21CCCCC1	4520
O=c1nc2n(c3cccc(Br)c13)-c1ccc(C3CCNCC3)cc1C21CCCC1	62

Complete the entry with IC50 for `O=c1nc2n(c3cccc(Cl)c13)-c1ccc(C3CCNCC3)cc1C21CCOCC1` 538

Complete the entry with IC50 for `O=c1nc2n(c3ccccc13)-c1cc(C3CCNCC3)ccc1C21CCCCC1` 3070

Complete the entry with IC50 for `O=c1nc2n(c3cccc(Cl)c13)-c1cc(C3CCNCC3)ccc1C21CCOCC1` 630

Complete the entry with IC50 for `O=c1nc2n(C3CCCC3)c3cc(C4CCNCC4)ccc3n2c2cccc(Br)c12` 45

Complete the entry with IC50 for `O=c1nc2n(c3cccc(Cl)c13)-c1ccc(C3CCNCC3)cc1C21CCCCC1` 53

Complete the entry with IC50 for `CCc1cccc2c1c(=O)nc1n2-c2cc(C3CCNCC3)ccc2C12CCCCC2` 3400

Complete the entry with IC50 for `O=c1nc2n(c3cccc(Cl)c13)-c1cc(C3CCNCC3)ccc1C21CCCC1` 106

---

Entries annotated with measured log10(IC50)
- System name: SWI/SNF-related matrix-associated actin-dependent regulator of chromatin subfamily A member 4 (Homo sapiens, UniProt P51532)
- Sequence (P51532 whole entry): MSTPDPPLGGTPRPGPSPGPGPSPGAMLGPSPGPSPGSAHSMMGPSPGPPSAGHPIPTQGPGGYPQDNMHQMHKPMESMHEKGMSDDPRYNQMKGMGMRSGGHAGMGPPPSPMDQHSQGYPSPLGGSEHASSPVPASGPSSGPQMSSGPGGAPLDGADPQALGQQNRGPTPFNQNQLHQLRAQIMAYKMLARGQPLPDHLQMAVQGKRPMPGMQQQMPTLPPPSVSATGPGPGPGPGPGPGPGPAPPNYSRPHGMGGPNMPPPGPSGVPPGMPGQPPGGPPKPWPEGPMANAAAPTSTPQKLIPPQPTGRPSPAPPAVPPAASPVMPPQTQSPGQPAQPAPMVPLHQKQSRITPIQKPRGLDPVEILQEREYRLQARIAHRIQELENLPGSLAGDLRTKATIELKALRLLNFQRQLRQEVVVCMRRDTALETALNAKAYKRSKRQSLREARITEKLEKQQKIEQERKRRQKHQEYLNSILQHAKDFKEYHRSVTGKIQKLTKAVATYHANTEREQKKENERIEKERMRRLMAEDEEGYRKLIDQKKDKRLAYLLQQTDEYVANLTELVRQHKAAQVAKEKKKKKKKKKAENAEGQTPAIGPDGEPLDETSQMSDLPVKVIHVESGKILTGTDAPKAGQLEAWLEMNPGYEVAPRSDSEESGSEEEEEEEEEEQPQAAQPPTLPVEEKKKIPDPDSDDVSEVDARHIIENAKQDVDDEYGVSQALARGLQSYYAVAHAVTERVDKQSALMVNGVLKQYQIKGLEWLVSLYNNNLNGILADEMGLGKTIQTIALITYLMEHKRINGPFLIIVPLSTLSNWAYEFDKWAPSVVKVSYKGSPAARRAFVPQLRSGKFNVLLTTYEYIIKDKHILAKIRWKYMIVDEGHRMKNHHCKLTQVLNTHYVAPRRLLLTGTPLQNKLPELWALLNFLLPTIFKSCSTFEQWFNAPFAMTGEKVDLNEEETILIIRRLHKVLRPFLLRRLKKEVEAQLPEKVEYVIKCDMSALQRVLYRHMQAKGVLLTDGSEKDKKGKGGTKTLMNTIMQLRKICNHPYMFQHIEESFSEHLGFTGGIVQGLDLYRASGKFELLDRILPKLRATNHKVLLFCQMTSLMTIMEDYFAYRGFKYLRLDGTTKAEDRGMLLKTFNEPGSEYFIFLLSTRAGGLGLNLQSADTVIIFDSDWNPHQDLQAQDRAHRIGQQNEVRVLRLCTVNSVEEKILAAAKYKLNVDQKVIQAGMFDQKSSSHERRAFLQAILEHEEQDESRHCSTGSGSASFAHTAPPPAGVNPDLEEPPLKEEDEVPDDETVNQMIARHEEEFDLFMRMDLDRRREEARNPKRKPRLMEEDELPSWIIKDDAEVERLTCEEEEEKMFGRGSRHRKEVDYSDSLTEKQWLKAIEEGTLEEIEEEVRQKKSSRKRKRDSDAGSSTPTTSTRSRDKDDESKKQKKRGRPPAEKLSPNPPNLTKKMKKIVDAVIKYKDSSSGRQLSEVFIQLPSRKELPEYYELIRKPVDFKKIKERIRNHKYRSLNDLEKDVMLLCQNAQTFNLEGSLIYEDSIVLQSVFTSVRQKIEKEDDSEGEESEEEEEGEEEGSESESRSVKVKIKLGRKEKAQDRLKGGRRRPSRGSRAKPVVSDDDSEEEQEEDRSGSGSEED
- Assay details: Inhibition of recombinant human GST-tagged SMARCA4 bromodomain measured after 120 mins incubation by TR-FRET assay
Reminder: these figures are log10 of reported IC50, in nM before transformation.

O=c1nc2n(c3cccc(Cl)c13)-c1ccc(C3CCNCC3)cc1C21CCCCCC1	2.11
O=c1nc2n(C3CCCC3)c3cc(C4CCNCC4)ccc3n2c2cccc(Br)c12	1.92

Please look at the following molecule next.
Complete the entry with log10(IC50) for `O=c1nc2n(c3ccccc13)-c1cc(C3CCNCC3)ccc1C21CCCCC1` 3.16

---

- System name: SWI/SNF-related matrix-associated actin-dependent regulator of chromatin subfamily A member 4 (Homo sapiens)
- Assay details: Inhibition of recombinant human GST-tagged SMARCA4 bromodomain measured after 120 mins incubation by TR-FRET assay
Observed property: pIC50
pIC50 here: minus log base 10 of the concentration, concentration in moles per litre.

O=c1nc2n(c3cccc(Br)c13)-c1cc(C3CCNCC3)ccc1C21CCCCC1	7.05
O=c1nc2n(c3cccc(Cl)c13)-c1cc(C3CCNCC3)ccc1C21CCOCC1	5.94
O=c1nc2n(c3cccc(O)c13)-c1cc(C3CCNCC3)ccc1C21CCCCC1	5.49

Complete the entry with pIC50 for `O=c1nc2n(c3cccc(Cl)c13)-c1cc(C3CCNCC3)ccc1C21CCCC1` 6.88
